Test system: HCT-15 colon
Assay: NCI-60 one-dose screen, 48 h (100 = growth as untreated, 0 = no growth, -100 = all killed)
Details: 10 µM unless noted
This is part of a sample that, as a whole, favours compounds with a hit. Of some 83,000 tested, about 20% had one in any assay.
READOUT_NAME: growth (%)
Supply the numeric figure in %, leaving out any unit text.

IN: Entry CN(C)c1nc(NCCNS(=O)(=O)c2ccc(C3=Nc4c(N)nc(N)nc4NC(c4ccccc4)C3)cc2)nc(Nc2ccc(F)cc2)n1 (centres undefined) : reported growth = ?
OUT: 37.4

IN: For "O=C1Nc2cc(Cl)ccc2/C1=C/c1cccc(OCc2ccccn2)c1" , what is its reported growth?
OUT: 7.16

IN: Request the reported growth associated with "Nc1nc(-c2ccccc2)c(N=Nc2ccc(Cl)cc2[N+](=O)[O-])s1"
OUT: 94.4

IN: Record request: growth value, item "CC(C)CCNC(=O)N/C(N)=N/c1nc2ccccc2s1"
OUT: 48.4

IN: Looking for the measured growth of "N#Cc1c(-c2ccc(Br)cc2)nc2n[nH]c(-c3ccc(Br)cc3)c2c1-c1ccc(C(F)(F)F)cc1" , can you help?
OUT: 5.75

IN: Quick one: growth for "COc1cccc(/C=C/c2nc3ccccc3c(=O)n2CC(=O)Nc2ccc(Cl)cc2)c1" ?
OUT: 88.3

IN: Item COc1cc2c(c(OC)c1OC)C(=O)CC(c1cccc(NC(=O)c3cccc(NC(=O)[C@H](C)NC(=O)OC(C)(C)C)c3)c1)O2 (some centres undefined) has what recorded growth?
OUT: 44.2

IN: # input molecule: "CCCCCCCCc1ccc(C(=O)Nc2cccc(P(=O)(O)O)c2)cc1" ; wanted: its growth
OUT: 100

IN: Requested field: growth. Item: "COc1ccc2cc([C@H](C)C(=O)N/N=C/c3ccc(Br)cc3)ccc2c1"
OUT: 101

----------
Tested on: CAKI-1 renal
Assay: NCI-60 one-dose screen, 48 h (100 = growth as untreated, 0 = no growth, -100 = all killed)
Conditions: 10 µM unless noted
This is part of a sample that, as a whole, favours compounds with a hit. Of some 83,000 tested, about 20% had one in any assay.
For each entry below, report its growth value.
Your answer is read as %, so omit the unit and give the number.

IN: Could you share what growth was measured for COc1ccc(N2N=C(c3ccc4c(c3)OCO4)CC2c2cccc(NC(=O)CCNS(=O)(=O)c3ccc(Cl)cc3)c2)cc1 (stereo not given) , tested on CAKI-1 renal?
OUT: 30.4

IN: Write down the reported growth of "N/C(=N\c1nc2ccccc2s1)NC(=O)NCCCCCCO" , test system: CAKI-1 renal.
OUT: 32

IN: Identify the measured growth of "Cn1cc(-c2nnc(N)nc2-c2c[nH]c3ccc(F)cc23)c2cccnc21" for CAKI-1 renal.
OUT: 45.7

IN: Identify the measured growth of "COc1ccc2cc([C@H](C)C(=O)N/N=C/c3ccc(Br)cc3)ccc2c1" for CAKI-1 renal.
OUT: 87.2

IN: Under CAKI-1 renal: growth value of "O=C(c1ccc(Cl)cc1)c1ccc(OCCCN2CCN(c3ccncc3)CC2)cc1" ?
OUT: 56.7

----------
System: SF-295 CNS
Experiment: NCI-60 one-dose screen, 48 h
Conditions: 10 µM unless noted
The panel holds about 83,000 compounds, 20% with a hit somewhere; the sample as a whole holds those more often. Activity calls are given as the source filed them. How the source made its calls: active means growth percent below 10; inactive means the rest.
Choose the fitting class; nothing outside TRUE for active, FALSE for inactive is accepted.

IN: Field: outcome | Entry: "CC(=O)N1CCN(Cc2ccc3c(NNC(=O)c4cnccn4)nc4cc(F)ccc4n23)CC1"
OUT: FALSE

IN: Tell me the assay call for Cc1ccc([C@H]2C(C(=O)c3ccc(Cl)cc3)C3(N[C@@H]2c2ccccc2)C(=O)Nc2ccc(Cl)cc23)cc1 (some centres not stated) please.
OUT: FALSE

IN: Outcome? "O=C(/C=C/c1ccc(-c2ccccc2)cc1)c1nc2ccccc2n1Cc1ccc(Br)cc1"
OUT: FALSE

IN: Record request — test call for "O=C(O)c1cccc(-c2ccc(/C=N/NC(=O)c3[nH]c4ccc(Br)cc4c3-c3ccccc3)s2)c1"
OUT: FALSE

IN: Look up the recorded call for "Cc1ccc(S(=O)(=O)c2nc(S(=O)(=O)c3ccc(C)cc3)c(Cl)s2)cc1" in this test.
OUT: FALSE

IN: Which outcome was assigned to "Cc1ncsc1-c1ccc(CNC(=O)[C@@H]2C[C@@H](O)CN2C(=O)[C@@H](NC(=O)C2(F)CC2)C(C)(C)C)c(OCCOCCOCCOCCOc2nc(Nc3cc(S(C)(=O)=O)ccc3N[C@@H](c3cccc4c3OC(F)(F)O4)c3ncccc3Cl)nc(N3CCNCC3)n2)c1" in this test?
OUT: FALSE

IN: Look up the recorded call for "O=C(/C=C/Nc1ccc(Cl)cc1)c1ccc2c(c1)Nc1ccccc1S2" in this test.
OUT: FALSE

IN: Which outcome did this test record for the compound C=C1CCC2C3(C)COC(c4cccs4)OC3CCC2(C)C1CC(Sc1ccccc1)C1=CCOC1=O (configuration not stated) ?
OUT: FALSE

IN: Just curious, what result did COc1c(F)ccc(C(=O)Nc2ccc3nc(NC(=O)C4CCCN(S(=O)(=O)c5ccc(C#N)cc5)C4)sc3c2)c1F (configuration not stated) get here?
OUT: FALSE

IN: Each compound tested received a call. Report the one for CC(C)C(C(=O)O)n1c(O)c(/C=C2/C=c3cc4c(cc3=NC2=O)OCO4)sc1=S (configuration not stated) .
OUT: FALSE

IN: How was "COc1cc2oc(-c3cccc(NC(=O)[C@H](Cc4ccccc4)NC(=O)OC(C)(C)C)c3)cc(=O)c2c(OC)c1OC" classified in this test?
OUT: FALSE

IN: Could you please tell me the result logged for "COc1ccc(-c2ccnc(SCc3cc4cc(Cl)ccc4[nH]c3=O)n2)cc1" in this assay?
OUT: FALSE

IN: Each compound tested received a call. Report the one for "CCN(CC)C(=O)N/C(N)=N/c1nc2ccccc2s1" .
OUT: FALSE

IN: How was "CCOC(=O)COc1c(OC)c(OC)cc2oc(-c3cccc(C(=O)Nc4ccc(Cl)cc4)c3)cc(=O)c12" classified in this test?
OUT: FALSE

IN: Look up the recorded call for "CN1CCN(c2ccc(C(=O)/C=C/c3ccc(Br)cc3)cc2)CC1" in this test.
OUT: FALSE

IN: In this assay, the call recorded for "Cc1ccc(C(=O)CSc2nc3ccc(F)cc3c(=O)n2-c2ccc(Cl)cc2)cc1" was what?
OUT: TRUE

IN: Can you look up the reported call for "O=C1/C(=C/C2=Cc3ccccc3OC2)SC(=S)N1c1ccccc1F" for me?
OUT: FALSE

The origin of these recorded values is PubChem BioAssay (NCI).
